Each recorded value in this set is attributed to paper PMC8699473.

experiment: Short-term stability in spiked pooled human plasma (bench-top, 4 °C, 56 °C); conditions: validation standard 2xLLOV
measured_metric: Short-time stability (1h, 56°C) Accuracy [%]

| molecule | result |
| --- | --- |
| Nc1cccc2c1CN(C1CCC(=O)NC1=O)C2=O (stereo not shown) [Lenalidomide] | 39.6% |
| CO[C@@H]1[C@H](N(C)C(=O)c2ccccc2)C[C@H]2O[C@]1(C)n1c3ccccc3c3c4c(c5c6ccccc6n2c5c31)C(=O)NC4 [Midostaurin] | 45.3% |
| COc1cc2c(Nc3ccc(Br)cc3F)ncnc2cc1OCC1CCN(C)CC1 [Vandetanib] | 44.7% |
| CS(=O)(=O)c1ccc(C(=O)Nc2ccc(Cl)c(-c3ccccn3)c2)c(Cl)c1 [Vismodegib] | 63.8% |
